Assay: Pharmacokinetics study in rats after single or combined intragastric administration
Type: in vivo, Sprague-Dawley rats
Details: male, Sprague-Dawley, rat, plasma, po, 2.6 mg/kg, omarigliptin 2.6 mg/kg intragastric, single administration, male SD rats, n = 5
Experimental: Fifteen male Sprague-Dawley rats (6-8 weeks old, 190-210 g) were purchased from Jinan Pengyue Laboratory Animal Technology Co., Ltd. (Jinan, China). The animal certification number was 3707262011004044 and the production license number was SCXK (Lu) 20190003. […] The dosage for rats was calculated based on the clinical dose. […] Samples were processed and analyzed by the validated method. Data were acquired and analyzed by Xcalibur 4.1 software (Thermo Fisher Scientific, Massachusetts, USA). […]
parameter: Cmax (ng/mL)
# number only, unit ng/mL dropped from output

Data request: Given the entry CS(=O)(=O)n1cc2c(n1)CN([C@H]1CO[C@H](c3cc(F)ccc3F)[C@@H](N)C1)C2 , report its measured Cmax.
Data returned: 3000
